Test system: NCI-H23 lung
assay_text: NCI-60 one-dose screen, 48 h (100 = growth as untreated, 0 = no growth, -100 = all killed)
condition: 10 µM unless noted
Description: Growth inhibition of the NCI-H23 human Non-Small Cell Lung tumor cell line is measured as a screen for anti-cancer activity. Cells are grown in 96 well plates and exposed to the test compound for 48 hours. Compounds are tested at a single concentration, which is 10^-5 M for most compounds. The reported endpoint is percent growth (GI% or GIPRCNT), where numbers from 0 - 100% represent growth inhibition, and numbers from -100% - 0 represent cell death. […]
This is part of a sample that, as a whole, favours compounds with a hit. Of some 83,000 tested, about 20% had one in any assay.
I'd appreciate it if you could supply growth values for the items below.
Give bare numbers, in %.

compound	experimental_target	observation_type	unit	observed_measurement
COc1cc2c(c(OC)c1OC)-c1ccc(NN(C(=O)c3ccccc3)C(=O)c3ccccc3)c(=O)cc1[C@@H](NC(C)=O)CC2 (tested in a mixture with another compound)	NCI-H23 lung	growth	%	26.9
N#Cc1c2ccccc2c2n1-c1ccccc1OC(c1ccccc1)C2=O (stereo unspecified)	NCI-H23 lung	growth	%	22.6
Cc1nn(-c2ccccc2)c(Cl)c1C(CC(=O)c1ccc(Cl)cc1)CC(=O)c1ccc(Cl)cc1	NCI-H23 lung	growth	%	87.2
Nc1ccc(C2=Nc3cccc4cccc(c34)S2)cc1	NCI-H23 lung	growth	%	86.9
OC(Cc1cccnc1)c1ccccc1 (stereo unspecified)	NCI-H23 lung	growth	%	103

# evaluate next
What measured growth goes with COc1cc(C2CC(=O)Nc3c2cc(Br)c2ccccc32)cc(Br)c1OC (stereo unspecified) ?
58.8
